peptide microarray binding signal for assorted binders
TEST_TARGET: HaloTag-ING2 PHD (mouse Ing2 200-280)
ASSAY_COMMENT: peptide microarray binding signal (635 nm), min-max normalized on array (fraction of array maximum); higher = stronger binding
STUDY_CONDITIONS: peptide region: Unmod H2B variant; binder concentration: 10 nM
Reply with just the number.

-- ask Name the reported peptide microarray binding signal value associated with the binder DGKKRKRSRKESY [Unmod H2B variant D G K K R K R S R K E S Y]
-- reply 0.00221

Further cases:
-- ask Sample GISSKAMSIMNSF [Unmod H2B variant G I S S K A M S I M N S F] — what was its peptide microarray binding signal?
-- reply 0.011

-- ask Requested read-out: peptide microarray binding signal. Entry: PEPSKSAPAPKKG [Unmod H2B variant P E P S K S A P A P K K G]
-- reply 0.00406

-- ask If you can, please state the reported peptide microarray binding signal value of ISKKGFKKAVVKT [Unmod H2B variant I S K K G F K K A V V K T] .
-- reply 0.00227
